Entries and their shrunken log2 fold change values follow.
- System: Escherichia coli TOP10;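 also: peptides expressed intracellularly from a pBAD plasmid library in pooled LB shake-flask culture, induced with 0.3% L-arabinose, DNA abundance read by NGS, three biological replicates, DESeq2 with apeglm shrinkage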
- RUN_DESCRIPTION: shrunken log2 fold change of peptide-encoding DNA abundance (4.5 h post-induction vs induction); higher = less antimicrobial activity (less host growth inhibition)
- CONDITION_SUMMARY: time post-induction: 4.5 h; library: site-saturation at positions 5, 18, 19, 20

# BIOSEQUENCE, STUDY_SYSTEM, shrunken log2 fold change
records = [
    ("RRIRRRPPRLPRPRPRPASLPRP", "Escherichia coli TOP10", 0.338),
    ("RRIRYRPPRLPRPRPRPCAKPRP", "Escherichia coli TOP10", -0.374),
    ("RRIRCRPPRLPRPRPRPCCNPRP", "Escherichia coli TOP10", -0.188),
    ("RRIRMRPPRLPRPRPRPCYMPRP", "Escherichia coli TOP10", -0.605),
    ("RRIRIRPPRLPRPRPRPEDFPRP", "Escherichia coli TOP10", 0.00408),
    ("RRIRIRPPRLPRPRPRPAVYPRP", "Escherichia coli TOP10", -0.825),
    ("RRIRTRPPRLPRPRPRPEWGPRP", "Escherichia coli TOP10", 0.249),
    ("RRIRDRPPRLPRPRPRPQHGPRP", "Escherichia coli TOP10", 0.587),
    ("RRIRNRPPRLPRPRPRPLSDPRP", "Escherichia coli TOP10", -0.0613),
    ("RRIRNRPPRLPRPRPRPANQPRP", "Escherichia coli TOP10", 0.271),
    ("RRIRNRPPRLPRPRPRPDGYPRP", "Escherichia coli TOP10", 0.171),
    ("RRIRVRPPRLPRPRPRPWDIPRP", "Escherichia coli TOP10", -0.235),
    ("RRIRRRPPRLPRPRPRPENAPRP", "Escherichia coli TOP10", 0.115),
    ("RRIRWRPPRLPRPRPRPNEPPRP", "Escherichia coli TOP10", -0.000964),
    ("RRIRYRPPRLPRPRPRPYMQPRP", "Escherichia coli TOP10", -0.117),
]
